Values from PubChem BioAssay (NCI)

Examples of compounds with documented TGI follow.
# Test system: U251 CNS
# EXPERIMENT: NCI tumour cell line growth inhibition, 48 h
MEASURED_ATTRIBUTE: TGI

COMPOUND | MEASURED_ATTRIBUTE | TEST_VALUE
CCOC(=O)N1CCc2cc(OC)c(OC)c3c2C1CC3=O (stereo unspecified) | TGI | > 100 µM
COc1ccc2oc3c4c2c1CCC4CCC3=O (stereo unspecified) | TGI | > 100 µM
CCSCC(N)C(=O)O (stereo unspecified) | TGI | > 100 µM
CC(=O)N1CC(Nc2ccc(OC(F)(F)F)cc2)=CC1=O | TGI | > 100 µM
Cc1cc2c(=O)n(-c3ccc(F)cc3)c(C)nc2c(C(=O)O)c1C | TGI | > 100 µM
O=C1Nc2cccc(Cl)c2/C1=C\c1c(Cl)nc2sccn12 | TGI | 21.5 µM
CCC[CH2][Sn]([CH2]CCC)([O]C(=O)c1cc(F)cc(F)c1)[O]C(=O)c1cc(F)cc(F)c1 | TGI | 1.85 µM
COc1cc(CCCOC(=O)/C=C/c2ccc(O)c(O)c2)cc(O)c1O | TGI | > 100 µM
N#Cc1c(-c2ccco2)cc(-c2ccc(NCc3nc4ccccc4[nH]3)cc2)nc1N | TGI | > 100 µM
CC1(C)CC[C@]2(C)CC=C3[C@]4(C)CC[C@H]5C(C)(C)C(=O)CC[C@]5(C)[C@H]4CC[C@@]3(C)[C@H]2C1 | TGI | > 100 µM
O=C(CO)CC(=O)C(=O)Nc1nc([N+](=O)[O-])cs1 | TGI | > 100 µM
